Below, each of the compounds is paired with its reported IC50 value.
System: K562 (chronic myelogenous leukemia)
ASSAY_METHOD_TEXT: MTS cytotoxicity assay, K562
Format: cell-based
MEASUREMENT_PARAMETERS: Homo sapiens
TEST_READOUT: IC50 (µM)

compound="OC[C@H]1O[C@@H](n2c3ccc4ncccc4c3c3c(-c4cc5ccccc5o4)ncnc32)[C@H](O)[C@@H]1O [14b]" study_system="K562 (chronic myelogenous leukemia)" units=µM result_qualifier=> reported_value=50
compound="Nc1ncnc2c1c1c3cccnc3ccc1n2[C@@H]1O[C@H](CO)[C@@H](O)[C@H]1O [14e]" study_system="K562 (chronic myelogenous leukemia)" units=µM result_qualifier== reported_value=10
compound="CN(C)c1ncnc2c1c1c3cccnc3ccc1n2[C@@H]1O[C@H](CO)[C@@H](O)[C@H]1O [14d]" study_system="K562 (chronic myelogenous leukemia)" units=µM result_qualifier=> reported_value=50
compound="COc1ncnc2c1c1c3cccnc3ccc1n2[C@@H]1O[C@H](CO)[C@@H](O)[C@H]1O [14f]" study_system="K562 (chronic myelogenous leukemia)" units=µM result_qualifier== reported_value=40.2

====

System: HL60 (acute promyelocytic leukemia)
ASSAY_METHOD_TEXT: CellTiter-Glo cytotoxicity assay, HL60
Assay type: cell-based
MEASUREMENT_PARAMETERS: Homo sapiens, HL-60, top concentration 10 μM
TEST_READOUT: IC50 (µM)

molecule="COc1ncnc2c1c1c3cccnc3ccc1n2[C@@H]1O[C@H](CO)[C@@H](O)[C@H]1O [14f]" test_readout=IC50 units=µM result_qualifier== reported_value=5.2
molecule="OC[C@H]1O[C@@H](n2c3ccc4ncccc4c3c3c(-c4cc5ccccc5o4)ncnc32)[C@H](O)[C@@H]1O [14b]" test_readout=IC50 units=µM result_qualifier=> reported_value=10
molecule="CSc1ncnc2c1c1c3cccnc3ccc1n2[C@@H]1O[C@H](CO)[C@@H](O)[C@H]1O [14g]" test_readout=IC50 units=µM result_qualifier== reported_value=9.3
molecule="OC[C@H]1O[C@@H](n2c3ccc4ncccc4c3c3c(-c4ccco4)ncnc32)[C@H](O)[C@@H]1O [14a]" test_readout=IC50 units=µM result_qualifier=> reported_value=10
molecule="Nc1ncnc2c1c1c3cccnc3ccc1n2[C@@H]1O[C@H](CO)[C@@H](O)[C@H]1O [14e]" test_readout=IC50 units=µM result_qualifier== reported_value=5.2
molecule="Cc1ncnc2c1c1c3cccnc3ccc1n2[C@@H]1O[C@H](CO)[C@@H](O)[C@H]1O [14c]" test_readout=IC50 units=µM result_qualifier== reported_value=6.7
molecule="CN(C)c1ncnc2c1c1c3cccnc3ccc1n2[C@@H]1O[C@H](CO)[C@@H](O)[C@H]1O [14d]" test_readout=IC50 units=µM result_qualifier=> reported_value=10

====

Below, each of the compounds is paired with its reported pIC50 value.
System: HepG2 (hepatocellular liver carcinoma)
ASSAY_METHOD_TEXT: CellTiter-Glo cytotoxicity assay, HepG2
Type: cell-based
MEASUREMENT_PARAMETERS: Homo sapiens, top concentration 10 μM
pIC50: −log10 of the molar value.
TEST_READOUT: pIC50

compound="OC[C@H]1O[C@@H](n2c3ccc4ncccc4c3c3c(-c4cc5ccccc5o4)ncnc32)[C@H](O)[C@@H]1O [14b]" study_system="HepG2 (hepatocellular liver carcinoma)" reported_value=5.55
compound="CSc1ncnc2c1c1c3cccnc3ccc1n2[C@@H]1O[C@H](CO)[C@@H](O)[C@H]1O [14g]" study_system="HepG2 (hepatocellular liver carcinoma)" reported_value="< 5.00"
compound="OC[C@H]1O[C@@H](n2c3ccc4ncccc4c3c3c(-c4ccco4)ncnc32)[C@H](O)[C@@H]1O [14a]" study_system="HepG2 (hepatocellular liver carcinoma)" reported_value="< 5.00"
compound="Nc1ncnc2c1c1c3cccnc3ccc1n2[C@@H]1O[C@H](CO)[C@@H](O)[C@H]1O [14e]" study_system="HepG2 (hepatocellular liver carcinoma)" reported_value=5.07
compound="Cc1ncnc2c1c1c3cccnc3ccc1n2[C@@H]1O[C@H](CO)[C@@H](O)[C@H]1O [14c]" study_system="HepG2 (hepatocellular liver carcinoma)" reported_value="< 5.00"
compound="CN(C)c1ncnc2c1c1c3cccnc3ccc1n2[C@@H]1O[C@H](CO)[C@@H](O)[C@H]1O [14d]" study_system="HepG2 (hepatocellular liver carcinoma)" reported_value="< 5.00"
compound="COc1ncnc2c1c1c3cccnc3ccc1n2[C@@H]1O[C@H](CO)[C@@H](O)[C@H]1O [14f]" study_system="HepG2 (hepatocellular liver carcinoma)" reported_value="< 5.00"
